experiment: NCI Yeast Anticancer Drug Screen. Data for the rad50 strain (AID 155);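 also: 0% = growth of vehicle-only cultures of the same strain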; details: S. cerevisiae rad50 strain growth inhibition; at 3.7 µM
About 79,000 compounds went through this panel and 15% of them were active in at least one assay; those are over-represented in the sample as a whole. Activity calls are given as the source filed them. Rule as the data show it: active = growth inhibition above about 70%; inactive = the rest. Residues, ends and D or L forms follow the SMILES beside them. *: point of attachment. Fmoc = O=C(OCC1c2ccccc2-c2ccccc21)*; Boc = CC(C)(C)OC(=O)*
Classes used: T = active, F = inactive

INSERT INTO measurements (molecule, assigned_class) VALUES
  ('O=C1c2cccc3cccc(c23)C(=O)N1O', 'F'),
  ('CC(C)(CN1CCCCC1)C(=O)/C=C/c1c(Cl)cccc1Cl', 'F'),
  ('NC(=S)N1N=C2c3ccccc3CC[C@@H]2[C@@H]1c1ccccc1', 'F'),
  ('COc1cc2c(cc1OC)[C@@H](Nc1ccc(C#N)cc1)C1COC(=O)[C@@H]1C2c1cc(OC)c(O)c(OC)c1 (stereo partly specified)', 'T'),
  ('OC(CC(O)(C(F)(F)F)C(F)(F)F)c1ccc(C(O)CC(O)(C(F)(F)F)C(F)(F)F)cc1 (stereo unspecified)', 'F'),
  ('CC(C)(C)OC(=O)NCCCCC(NC(=O)C(Cc1c[nH]c2ccccc12)NC(=O)OCC1c2ccccc2-c2ccccc21)C(=O)O (stereo unspecified) (Fmoc-Trp-Lys(Boc)-OH; configuration not given here)', 'F'),
  ('O=C1c2ccccc2-c2cc3ccccc3c(=O)n21', 'F'),
  ('CCOC(=O)Nc1ccc(C)c(NC(=O)OCC)c1', 'F'),
  ('C1=CCN([B-](c2ccccc2)[C+]2CCCCC2)C=C1', 'F'),
  ('COc1cc2oc3ccccc3c(=O)c2cc1CSc1ccccc1N', 'F'),
  ('COc1ccc(/C=C2\SC(=S)N(/C=C3\C(=O)N(c4ccccc4)N=C3C)C2=O)cc1OC', 'F'),
  ('CN(C)CC(CN(C)C)C(=O)/C=C/c1ccc(Cl)cc1Cl', 'F'),
  ('O=C1SS(=O)c2ccccc21 (stereo unspecified)', 'F'),
  ('COc1ccc2c3c1OC(C)C31CC(=O)CCC1CC2 (stereo unspecified)', 'F'),
  ('COc1ccc(N=c2cc(-c3ccccc3)oc3ccccc23)cc1', 'F'),
  ('ClCCCOc1c(Cl)cc(Cl)cc1Cl', 'F'),
  ('O=C(O)C1CCCCC1c1c2ccc(=O)cc-2oc2cc(O)ccc12 (stereo unspecified)', 'F'),
  ('C=CCNC1=C2C[C@@H](C)C[C@H](OC)[C@H](O)[C@@H](C)/C=C(\C)[C@H](OC(N)=O)[C@@H](OC)/C=C\C=C(/C)C(=O)NC(=CC1=O)C2=O', 'F'),
  ('CC(=O)O/N=C1C=C/C(=C(/C#N)c2ccccc2)C=C/1C', 'F'),
  ('CC(=O)/C=C/c1cc([N+](=O)[O-])ccc1O', 'F'),
  ('CCN(CC)CCNc1ccc2nc(C)n3c4ccc(O)cc4c(=O)c1c23', 'T');

###

experiment: NCI Yeast Anticancer Drug Screen. Data for the rad50EPP+ strain (AID 151);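 also: 0% = growth of vehicle-treated control cultures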; conditions: S. cerevisiae rad50 mutant strain, at 11.0 µM, stronger effect = higher value
The panel holds about 79,000 compounds, 15% with a hit somewhere; the sample as a whole holds those more often.
EXPERIMENTAL ENDPOINT: growth inhibition (%)

INSERT INTO assay_data (compound, experimental_endpoint, number) VALUES
  ('CCN(CC)CCNc1ccc2nc(C)n3c4ccc(O)cc4c(=O)c1c23', 'growth inhibition', 24),
  ('CCOc1ccc(N)c(S)c1', 'growth inhibition', 10),
  ('c1ccc2c(c1)ccn2CCc1c[nH]c2ccccc12', 'growth inhibition', 23),
  ('O=C1c2ccccc2-c2cc3ccccc3c(=O)n21', 'growth inhibition', 90),
  ('OC1(C#CI)CCCCC1', 'growth inhibition', 96),
  ('Fc1cc(F)c(F)c(S)c1F', 'growth inhibition', 45),
  ('O=C1C2=C(c3ccccc31)C(c1ccccc1)N1C(=O)CSC1=N2 (stereo not given)', 'growth inhibition', 5),
  ('N#CSCC1COc2ccccc2O1 (stereo not given)', 'growth inhibition', -5),
  ('CC(C)NCCCNc1c2ccccc2nc2cccc([N+](=O)[O-])c12', 'growth inhibition', 95),
  ('O=C(Nn1c(-c2ccccc2)nc2ccccc2c1=O)c1ccc(CS)cc1', 'growth inhibition', 5),
  ('Nc1ccc(N=Nc2ccc(-c3ccc(O)cc3)cc2)c2ccc(S(=O)(=O)O)cc12', 'growth inhibition', 67),
  ('O=C(O)C(=Cc1ccc(-c2ccccc2)cc1)C(=O)O', 'growth inhibition', -1),
  ('CC1(C)OC(=O)C(=Cc2ccc([N+](=O)[O-])s2)C(=O)O1', 'growth inhibition', -2),
  ('CC1=CN2C(c3ccccc3)=NON(c3ccc(C)cn3)C2C=C1 (stereo not given)', 'growth inhibition', 0),
  ('CCC(C)(C)c1ccc(Oc2ccccc2)c(N)c1', 'growth inhibition', 66),
  ('CCN(CC)C(=S)SC(=S)N(CC)CC', 'growth inhibition', 37),
  ('CN(C)CCNc1ccc2ncn3c4ccc(O)cc4c(=O)c1c23', 'growth inhibition', -21),
  ('O=C(c1cc(=O)c2ccc(O)cc2o1)c1ccc(Cl)cc1Cl', 'growth inhibition', 52),
  ('O=[N+]([O-])c1cccc2nc3ccccc3c(NCCCN3CCCCC3)c12', 'growth inhibition', 98),
  ('CN(C)/C(=N/C(=S)Nc1ccccc1)SCc1ccccc1', 'growth inhibition', -5),
  ('OC(c1ccccc1)(c1ccccc1)c1nccc2ccccc12', 'growth inhibition', 32),
  ('CC(C)=CCC/C(C)=C/CN1C(=O)C=CC1=O', 'growth inhibition', 99),
  ('CC1(C)CC(=O)C(C=NC(=S)C(N)=S)=C(O)C1', 'growth inhibition', -46),
  ('Cc1cccc2c(Cl)c3cccc(C)c3nc12', 'growth inhibition', 26),
  ('O=S(=O)(c1cccc(C(F)(F)F)c1)N1c2ccccc2-n2cccc2C1c1cccnc1 (stereo not given)', 'growth inhibition', -54);

###

Catalogue of growth inhibition readings, one per entry.
assay: NCI Yeast Anticancer Drug Screen. Data for the bub3 strain (AID 167); settings: S. cerevisiae bub3 mutant strain, at 50.0 µM (retest, dose inferred, filed as 5.0), stronger effect = higher value
This is part of a sample that, as a whole, favours compounds with a hit. Of some 79,000 tested, about 15% had one in any assay.
EXPERIMENTAL ENDPOINT: growth inhibition (%)

INSERT INTO assay_data (chemical_string, experimental_endpoint, number) VALUES
  ('c1cc(-c2sc(-c3ccncc3)c(-c3ccncc3)c2-c2ccncc2)ccn1', 'growth inhibition', 18),
  ('O=[N+]([O-])c1ccc(S(=O)(=O)Cc2ccccc2)c([N+](=O)[O-])c1', 'growth inhibition', 99),
  ('CCOc1ccc2nc3ccccc3c(N)c2c1', 'growth inhibition', 84),
  ('COc1ccc(-c2cc(-c3cc(C)cc(Cl)c3O)nc3[nH]c(=S)[nH]c(=S)c23)cc1', 'growth inhibition', 63),
  ('O=C(CCCN1CCC(Nc2ccc(F)cc2)(c2nnnn2C2CCCCC2)CC1)c1ccc(F)cc1', 'growth inhibition', 80),
  ('CN(N=O)C(=O)Nc1ccc(C(=O)O)cc1', 'growth inhibition', 6);

###

test: NCI Yeast Anticancer Drug Screen. Data for the rad18 strain (AID 177); conditions: S. cerevisiae rad18 mutant growth inhibition; at 11.0 µM; stronger effect = higher value
Compounds without any hit were thinned out: in the full panel of roughly 79,000, 15% have a hit.
EXPERIMENTAL ENDPOINT: growth inhibition (%)

INSERT INTO assay_data (molecule, unit_spec, number) VALUES
  ('Nc1cc(Cl)ccc1Nc1ccccc1', '%', -24),
  ('O=C(Nc1ccc(Cl)cc1)c1cc2cc(N=Nc3ccccc3Cl)ccc2oc1=O', '%', 68),
  ('CCOP(=O)(OCC)/C(C#N)=C\c1cccc2ccccc12', '%', 47),
  ('NC(CS)C(=O)NCCNc1ccc(NCCNC(=O)C(N)CS)c2c1C(=O)c1c(O)ccc(O)c1C2=O (centres undefined)', '%', -8);

###

Assay: NCI Yeast Anticancer Drug Screen. Data for the wt1 strain (AID 149);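 also: 0% = growth of vehicle-treated wt1 cultures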
Conditions: S. cerevisiae wt1 strain (SPY 50644) growth inhibition; at 1.2 µM; stronger effect = higher value
Procedure: Growth inhibition of yeast strains with defined genetic alterations is measured as a screen for potential anti-cancer activity. Selected strains with alterations in DNA damage repair or cell cycle control were exposed to compounds and growth inhibition was measured relative to vehicle treated controls. The strain used in this assay is wt1
The panel holds about 79,000 compounds, 15% with a hit somewhere; the sample as a whole holds those more often.
EXPERIMENTAL ENDPOINT: growth inhibition (%)

INSERT INTO measurements (chemical_string, number) VALUES
  ('COC(=O)c1cnc(Cl)c([N+](=O)[O-])c1', 6),
  ('NCCOc1ccc(/C(=C(/Cl)c2ccccc2)c2ccccc2)cc1', 1),
  ('CCN(CC)CCNc1ccc2nc(C)n3c4ccc(OC)cc4c(=O)c1c23', 27),
  ('CC(=O)/C=C/c1cc([N+](=O)[O-])ccc1O', -12),
  ('O=C(CCCN1CCC(Nc2ccc(F)cc2)(c2nnnn2C2CCCCC2)CC1)c1ccc(F)cc1', -81),
  ('COc1ccc(/C=C2\SC(=S)N(/C=C3\C(=O)N(c4ccccc4)N=C3C)C2=O)cc1OC', 3),
  ('O=C(C#Cc1ccccc1)/C=C/c1ccccc1', -6),
  ('C=CCNC1=C2C[C@@H](C)C[C@H](OC)[C@H](O)[C@@H](C)/C=C(\C)[C@H](OC(N)=O)[C@@H](OC)/C=C\C=C(/C)C(=O)NC(=CC1=O)C2=O', -26),
  ('CCCN=Cc1cc(Cc2ccc(O)c(C=NCCC)c2)ccc1O', 64),
  ('CN(C)N=Nc1ccc(N(C)C)cc1', 1);
